target: HLA-B*35:01; assay: IEDB peptide-MHC binding, purified MHC/direct/fluorescence; filed as Kd, often an IC50 or EC50 that approximates it; bounds were set here for any values at or beyond the usual limits of such assays; conditions: source organism: Escherichia coli
readout name: Kd (µM)

[[record]]
sequence_entry = "SHDTIGPYY"
readout_name = "Kd"
result_value = 4.76


---

target: HLA-B*15:01; test: IEDB peptide-MHC binding, purified MHC/direct/fluorescence; filed as Kd, often an IC50 or EC50 that approximates it; bounds were set here for any values at or beyond the usual limits of such assays; details: source organism: Salmonella enterica subsp. enterica serovar Typhimurium
pKd: −log10 of the molar value.
readout name: pKd

[[record]]
sequence_entry = "NSDYMMWVG"
result_value = "≤ 4.70"


---

target: HLA-A*02:12; assay: IEDB peptide-MHC binding, purified MHC/direct/fluorescence; filed as Kd, often an IC50 or EC50 that approximates it; bounds were set here for any values at or beyond the usual limits of such assays; settings: source organism: Coxiella burnetii Q321
readout name: Kd (nM)

[[record]]
sequence_entry = "YMHGSIHEV"
readout_name = "Kd"
result_value = 7


---

Recorded Kd values for a group of sequences are listed next.
molecular target: HLA-B*18:01; assay: IEDB peptide-MHC binding, purified MHC/direct/fluorescence; filed as Kd, often an IC50 or EC50 that approximates it; bounds were set here for any values at or beyond the usual limits of such assays; conditions: source organism: Escherichia coli O157:H7
readout name: Kd (µM)

[[record]]
sequence_entry = "YECTSRHFT"
target_under_test = "HLA-B*18:01"
readout_name = "Kd"
value_unit = "µM"
lt_gt_eq = "="
result_value = 0.318

[[record]]
sequence_entry = "EEDAAVDDL"
target_under_test = "HLA-B*18:01"
readout_name = "Kd"
value_unit = "µM"
lt_gt_eq = "≥"
result_value = 20


---

target: HLA-A*01:01; assay: IEDB peptide-MHC binding, purified MHC/competitive/radioactivity; filed as Kd, often an IC50 or EC50 that approximates it; bounds were set here for any values at or beyond the usual limits of such assays; conditions: source organism: Mammarenavirus juninense
pKd: −log10 of the molar value.
readout name: pKd

[[record]]
sequence_entry = "EDAMPGVLSY"
readout_name = "pKd"
result_value = 4.97


---

biological target: HLA-B*58:01; assay: IEDB peptide-MHC binding, purified MHC/direct/fluorescence; filed as Kd, often an IC50 or EC50 that approximates it; bounds were set here for any values at or beyond the usual limits of such assays; settings: source organism: Yellow fever virus 17D
readout name: Kd

[[record]]
sequence_entry = "VRGGMVAPL"
target_under_test = "HLA-B*58:01"
readout_name = "Kd"
result_value = "≥ 20 µM"


---

molecular target: HLA-B*53:01; assay: IEDB peptide-MHC binding, purified MHC/competitive/radioactivity; filed as Kd, often an IC50 or EC50 that approximates it; bounds were set here for any values at or beyond the usual limits of such assays; settings: source organism: Mammarenavirus juninense
pKd: −log10 of the molar value.
readout name: pKd

[[record]]
sequence_entry = "HPDMDSMMI"
target_under_test = "HLA-B*53:01"
result_value = 6.78


---

molecular target: HLA-A*02:03; test: IEDB peptide-MHC binding, purified MHC/competitive/radioactivity; filed as Kd, often an IC50 or EC50 that approximates it; bounds were set here for any values at or beyond the usual limits of such assays; conditions: source organism: Mammarenavirus juninense
pKd: −log10 of the molar value.
readout name: pKd

[[record]]
sequence_entry = "YCNYTKFWYV"
result_value = 7.00


---

target: HLA-B*40:01; assay: IEDB peptide-MHC binding, purified MHC/direct/fluorescence; filed as Kd, often an IC50 or EC50 that approximates it; bounds were set here for any values at or beyond the usual limits of such assays; settings: source organism: Salmonella enterica
readout name: Kd

[[record]]
sequence_entry = "EIIFYHPTF"
result_value = "≥ 20 µM"

[[record]]
sequence_entry = "YPVWLTKHL"
result_value = "2.93 µM"


---

biological target: HLA-A*68:02; experiment: IEDB peptide-MHC binding, purified MHC/direct/fluorescence; filed as Kd, often an IC50 or EC50 that approximates it; bounds were set here for any values at or beyond the usual limits of such assays; conditions: source organism: Burkholderia mallei
pKd: −log10 of the molar value.
readout name: pKd

[[record]]
sequence_entry = "FEIGNGDAG"
readout_name = "pKd"
result_value = "≤ 4.70"


---

target: HLA-A*11:01; test: IEDB peptide-MHC binding, purified MHC/direct/fluorescence; filed as Kd, often an IC50 or EC50 that approximates it; bounds were set here for any values at or beyond the usual limits of such assays; conditions: source organism: Burkholderia mallei
pKd: −log10 of the molar value.
readout name: pKd

[[record]]
sequence_entry = "FEIGNGDAG"
result_value = "≤ 4.70"


---

molecular target: HLA-B*07:02; assay: IEDB peptide-MHC binding, purified MHC/competitive/radioactivity; filed as Kd, often an IC50 or EC50 that approximates it; bounds were set here for any values at or beyond the usual limits of such assays; conditions: source organism: Dengue virus 2 Jamaica/1409/1983
readout name: Kd (nM)

[[record]]
sequence_entry = "QPATLRKYCI"
value_unit = "nM"
result_value = 660

[[record]]
sequence_entry = "FPQSNAPIM"
value_unit = "nM"
result_value = 12.1


---

molecular target: HLA-B*57:01; assay: IEDB peptide-MHC binding, purified MHC/competitive/radioactivity; filed as Kd, often an IC50 or EC50 that approximates it; bounds were set here for any values at or beyond the usual limits of such assays; conditions: source organism: Dengue virus 1 Brazil/97-11/1997
pKd: −log10 of the molar value.
readout name: pKd

[[record]]
sequence_entry = "STSQETWNRQ"
target_under_test = "HLA-B*57:01"
readout_name = "pKd"
result_value = 6.03

[[record]]
sequence_entry = "VLSIVSLFPL"
target_under_test = "HLA-B*57:01"
readout_name = "pKd"
result_value = 6.97

[[record]]
sequence_entry = "LSSLLKNDVP"
target_under_test = "HLA-B*57:01"
readout_name = "pKd"
result_value = 5.14


---

Recorded pKd values for a group of sequences are listed next.
biological target: HLA-A*23:01; assay: IEDB peptide-MHC binding, purified MHC/competitive/radioactivity; filed as Kd, often an IC50 or EC50 that approximates it; bounds were set here for any values at or beyond the usual limits of such assays; details: source organism: Dengue virus 3 Martinique/1243/1999
pKd: −log10 of the molar value.
readout name: pKd

[[record]]
sequence_entry = "MWLGARYLEF"
result_value = 8.45

[[record]]
sequence_entry = "NYCEGTTVVI"
result_value = 7.00


---

Recorded Kd values for a group of sequences are listed next.
target: HLA-A*02:06; assay: IEDB peptide-MHC binding, purified MHC/competitive/radioactivity; filed as Kd, often an IC50 or EC50 that approximates it; bounds were set here for any values at or beyond the usual limits of such assays; details: source organism: Dengue virus 2 Jamaica/1409/1983
readout name: Kd

[[record]]
sequence_entry = "IILEFFLIV"
result_value = "0.384 nM"

[[record]]
sequence_entry = "LMMRTTWAL"
result_value = "8.05 nM"

[[record]]
sequence_entry = "MLLILCVTQV"
result_value = "7.91 nM"


---

molecular target: HLA-B*58:01; assay: IEDB peptide-MHC binding, purified MHC/direct/fluorescence; filed as Kd, often an IC50 or EC50 that approximates it; bounds were set here for any values at or beyond the usual limits of such assays; conditions: source organism: Bacillus licheniformis
pKd: −log10 of the molar value.
readout name: pKd

[[record]]
sequence_entry = "RLIWSHHHI"
target_under_test = "HLA-B*58:01"
lt_gt_eq = "="
result_value = 7.61

[[record]]
sequence_entry = "VQIPEKKCF"
target_under_test = "HLA-B*58:01"
lt_gt_eq = "≤"
result_value = 4.70


---

biological target: HLA-A*01:01; experiment: IEDB peptide-MHC binding, purified MHC/direct/fluorescence; filed as Kd, often an IC50 or EC50 that approximates it; bounds were set here for any values at or beyond the usual limits of such assays; conditions: source organism: Tobacco leaf curl Zimbabwe virus
pKd: −log10 of the molar value.
readout name: pKd

[[record]]
sequence_entry = "CASSSDWFY"
readout_name = "pKd"
result_value = 8.68


---

Recorded pKd values for a group of sequences are listed next.
biological target: HLA-A*11:01; assay: IEDB peptide-MHC binding, purified MHC/competitive/radioactivity; filed as Kd, often an IC50 or EC50 that approximates it; bounds were set here for any values at or beyond the usual limits of such assays; conditions: source organism: Vaccinia virus Copenhagen
pKd: −log10 of the molar value.
readout name: pKd

[[record]]
sequence_entry = "GFTATICLK"
result_value = 7.39

[[record]]
sequence_entry = "ILARRPTPK"
result_value = 7.34

[[record]]
sequence_entry = "ILARRPTPKK"
result_value = 8.40

[[record]]
sequence_entry = "SLLKETIQK"
result_value = 7.77

[[record]]
sequence_entry = "YTFAISYCR"
result_value = 8.47

